Test system: MOLT-4 leukemia
Experiment: NCI tumour cell line growth inhibition, 48 h
OBSERVABLE: TGI

• COc1ccc(/C=N/NC(=O)c2ccccc2Nc2ccccc2C(=O)N/N=C/c2ccc(OC)cc2)cc1 = > 100 µM
• O=C(CSc1nnc(Cc2ccccc2)o1)Nc1ccccc1Cl = > 100 µM

Task item: Complete the entry with TGI for COc1ccc([C@@H]2CC(=O)NCCCNCCCCNCCCN2)cc1
Reply: > 100 µM

Task item: Complete the entry with TGI for CCN(CC)CCOc1ccc(N2Cc3ccccc3C2=O)cc1
Reply: > 10 µM

Task item: Complete the entry with TGI for CN(C)CCn1c(=O)oc2cc(C(=O)CN3CCOCC3)ccc21
Reply: > 100 µM

Task item: Complete the entry with TGI for CN(C)c1ccc(/C=C/c2ccnc3ccc4ccccc4c23)cc1
Reply: > 100 µM

====

Tested on: DU-145 prostate
Assay: NCI tumour cell line growth inhibition, 48 h
Each entry below carries its recorded GI50.

Use these answered entries as a reference point.
- CCOC(=O)/C(=C/c1ccccc1)C(=O)c1ccccc1: 5.32 µM
- O=C(CCc1ccco1)NC1CCN(CC2(c3ccc(Cl)cc3)CCC2)CC1: 19.1 µM
- Cc1ccc(Nc2[nH]c(C(=O)c3ccc(Cl)cc3)c(N)c2C(=S)Nc2ccccc2)nc1: 31.2 µM
- C[n+]1c2cc(N)ccc2cc2ccc(N)cc21 (tested in a mixture with another compound): 0.584 µM

Attention now shifts to the item below.
Task item: Complete the entry with GI50 for COc1cc(-c2cc(-c3nc4cc(Cl)c(Cl)cc4[nH]3)[nH]n2)cc(OC)c1OC
Reply: 4.16 µM

====

Tested on: NCI-H460 lung
Assay: NCI tumour cell line growth inhibition, 48 h
OBSERVABLE: TGI (µM)
Please respond with the number in µM and leave the unit unwritten.

- Cc1cc(S(N)(=O)=O)c(S/C(=N\Nc2ccc([N+](=O)[O-])cc2)c2ccc(O)cc2)cc1Cl: 10.1
- C=C1C(=O)OC2/C=C(\C)C(=O)CC3OC(C)(C)OC3(C)CC(OC(=O)/C(C)=C/C)C12 (stereo unspecified): 46.2

Task item: Complete the entry with TGI for COc1cc(-c2nc3ccccc3[nH]2)ccc1OCC(=O)N=Nc1c(O)[nH]c2ccc(Cl)cc12
Reply: 2.84

====

Each entry below carries its recorded GI50.
Tested on: MOLT-4 leukemia
Test: NCI tumour cell line growth inhibition, 48 h

Use these answered entries as a reference point.
- COc1cc(-c2nc(-c3nnc(-c4ccc(F)c(Cl)c4)o3)c3ccccn23)cc(OC)c1OC: > 100 µM
- Clc1nc(Cl)c2ncn(C/C=C/Cn3cnc4c(Cl)nc(Cl)nc43)c2n1: 17 µM
- COc1ccc2c(O)c(/C=C3\N=Nc4ncccc43)oc2c1C[C@H]1CCNC[C@H]1F: 0.294 µM
- COc1cccc2c1nc1cccc(OC)c1[n+]2[O-]: 0.46 µM

Attention now shifts to the item below.
Task item: Complete the entry with GI50 for COc1cc(/C=C/C(=O)NC[C@]2(O)CCC3C4CCc5cc(O)ccc5C4CCC32C)ccc1O (stereo not given in full)
Reply: 3.9 µM

====

System: TK-10 renal
Experiment: NCI tumour cell line growth inhibition, 48 h
OBSERVABLE: TGI

* C=C1C(=O)CCC1C(=O)O (stereo not given) | > 100 µM
* COc1cc2c(cc1O)[C@H](C)C(c1ccccc1OC)O2 (stereo not given in full) | > 100 µM
* Cc1ccc(C(=O)OC(C)C)cc1N=NN(C)C | > 100 µM

Task item: Complete the entry with TGI for c1cc2[nH]snc2c2cncc12
Reply: > 100 µM

Task item: Complete the entry with TGI for CCOc1ncn(-c2ccc(NC(=S)Nc3cnccn3)cc2)n1
Reply: > 10 µM

Task item: Complete the entry with TGI for Nc1c(S(=O)(=O)O)cc(Nc2cccc(S(N)(=O)=O)c2)c2c1C(=O)c1ccccc1C2=O
Reply: > 100 µM

Task item: Complete the entry with TGI for Nc1ccc(OCC(O)N2C(=O)c3ccccc3C2=O)cc1 (stereo not given)
Reply: > 100 µM

Task item: Complete the entry with TGI for O=C(CSc1nnc(Cc2ccccc2)o1)Nc1ccccc1Cl
Reply: > 100 µM

Task item: Complete the entry with TGI for O=c1c2[nH]c3ccccc3c2nc2n1CCS2
Reply: > 100 µM
